# Lookup of reported DC50 keyed by entry
measurement_target: endogenous MLKL in MDF (Mus musculus (Mouse), UniProt Q9D2Y4)
Sequence (Q9D2Y4 whole entry): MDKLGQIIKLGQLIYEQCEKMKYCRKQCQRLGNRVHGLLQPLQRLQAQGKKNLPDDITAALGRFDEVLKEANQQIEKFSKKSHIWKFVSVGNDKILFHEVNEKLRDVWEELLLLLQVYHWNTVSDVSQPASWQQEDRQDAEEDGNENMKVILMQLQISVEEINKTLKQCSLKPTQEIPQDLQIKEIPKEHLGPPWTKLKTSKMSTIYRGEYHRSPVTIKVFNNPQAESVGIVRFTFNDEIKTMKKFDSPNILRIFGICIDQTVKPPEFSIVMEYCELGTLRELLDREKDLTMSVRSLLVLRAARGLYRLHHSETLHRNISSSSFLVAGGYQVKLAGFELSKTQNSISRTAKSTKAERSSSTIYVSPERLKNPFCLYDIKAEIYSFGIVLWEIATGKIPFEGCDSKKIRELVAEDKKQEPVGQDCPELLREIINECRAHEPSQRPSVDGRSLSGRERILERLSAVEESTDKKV
assay_remarks: Degradation assay: endogenous MLKL in MDF (western blot)
applied_conditions: MDF cells, 24 h incubation with compound, MLKL adjusted for loading with GAPDH, normalized to DMSO only control, read-out: Degradation of endogenous MLKL in MDF (DC50 cell-based assay)

molecule: C[C@H](Oc1cc(-c2nn(C)c3c(-c4cnn(C5CCN(C(=O)Cc6cccc7c6C(=O)N(C6CCC(=O)NC6=O)C7=O)CC5)c4)cnc(N)c23)ccc1NS(=O)(=O)C(F)F)c1ccc(F)cc1 (some centres unmarked)
DC50: < 1000 nM
//
molecule: C[C@H](Oc1cc(-c2nn(C)c3c(-c4cnn(C5CCN(CCCN6CCN(C(=O)COc7ccc8c(c7)C(=O)N(C7CCC(=O)NC7=O)C8=O)CC6)CC5)c4)cnc(N)c23)ccc1NS(=O)(=O)C(F)F)c1ccc(F)cc1 (some centres unmarked)
DC50: < 1000 nM
//
molecule: Cn1nc(-c2ccc(NS(=O)(=O)C(F)F)c(F)c2)c2c(N)ncc(-c3cnn(C4CCN(Cc5cccc(CNc6cccc7c6C(=O)N(C6CCC(=O)NC6=O)C7=O)c5)CC4)c3)c21 (centres unmarked)
DC50: 1000 to 10000 nM
//
molecule: C[C@H](Oc1cc(-c2nn(C)c3c(-c4cnn(C5CCN(C(=O)CC6CCN(c7cccc8c7C(=O)N(C7CCC(=O)NC7=O)C8=O)CC6)CC5)c4)cnc(N)c23)ccc1NS(=O)(=O)C(F)F)c1ccc(F)cc1 (some centres unmarked)
DC50: < 1000 nM

Endpoint output: DC50 of C[C@H](Oc1cc(-c2nn(C)c3c(-c4cnn(C5CCN(C(=O)c6ccc7c(c6)CN(C6CCC(=O)NC6=O)C7=O)CC5)c4)cnc(N)c23)ccc1NS(=O)(=O)C(F)F)c1ccc(F)cc1 (some centres unmarked) . Value? < 1000 nM

* * *

measurement_target: endogenous MLKL in U937 (Homo sapiens (Human))
Sequence (Q8NB16 whole entry): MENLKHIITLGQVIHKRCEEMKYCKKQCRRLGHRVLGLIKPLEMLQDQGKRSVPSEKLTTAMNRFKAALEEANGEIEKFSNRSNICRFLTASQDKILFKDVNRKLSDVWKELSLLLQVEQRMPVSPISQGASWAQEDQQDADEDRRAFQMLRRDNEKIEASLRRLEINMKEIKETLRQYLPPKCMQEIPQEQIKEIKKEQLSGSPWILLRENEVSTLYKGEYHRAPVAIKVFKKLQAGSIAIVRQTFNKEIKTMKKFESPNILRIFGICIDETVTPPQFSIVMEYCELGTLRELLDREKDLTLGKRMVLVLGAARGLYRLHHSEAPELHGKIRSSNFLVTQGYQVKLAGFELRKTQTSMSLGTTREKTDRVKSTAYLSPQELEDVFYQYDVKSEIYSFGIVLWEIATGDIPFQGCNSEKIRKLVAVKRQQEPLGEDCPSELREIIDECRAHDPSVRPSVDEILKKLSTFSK
assay_remarks: Degradation assay: endogenous MLKL in U937 (western blot)
applied_conditions: U937, 24 h incubation, read-out: Degradation of endogenous MLKL in U937 (DC50 cell-based assay)
attribute_measured: DC50

compound: C[C@H](Oc1cc(-c2nn(C)c3c(-c4cnn(C5CCN(C(=O)C6CCCN(c7cccc8c7C(=O)N(C7CCC(=O)NC7=O)C8=O)C6)CC5)c4)cnc(N)c23)ccc1NS(=O)(=O)C(F)F)c1ccc(F)cc1 (some centres unmarked) [Compound 1077]
measurement_target: endogenous MLKL in U937 (Homo sapiens (Human))
DC50: 1000 to 10000 nM

compound: C[C@H](Oc1cc(-c2nn(C)c3c(-c4cnn(C5CCN(C(=O)COc6cccc7c6C(=O)N(C6CCC(=O)NC6=O)C7=O)CC5)c4)cnc(N)c23)ccc1NS(=O)(=O)C(F)F)c1ccc(F)cc1 (some centres unmarked) [Compound 1082]
measurement_target: endogenous MLKL in U937 (Homo sapiens (Human))
DC50: < 1000 nM

Param readout = DC50; param system = endogenous MLKL in U937 (Homo sapiens (Human)); param query = C[C@H](Oc1cc(-c2nn(C)c3c(-c4cnn(C5CCN(C(=O)[C@H]6CC[C@H](Nc7cccc8c7C(=O)N(C7CCC(=O)NC7=O)C8=O)CC6)CC5)c4)cnc(N)c23)ccc1NS(=O)(=O)C(F)F)c1ccc(F)cc1 (some centres unmarked) [Compound 1058] ; response: value 1000 to 10000 nM

Param readout = DC50; param system = endogenous MLKL in U937 (Homo sapiens (Human)); param query = Cn1nc(-c2ccc(NS(=O)(=O)CC(F)(F)F)c(F)c2)c2c(N)ncc(-c3cnn(C4CCN(C(=O)[C@H]5C[C@H](Nc6cccc7c6C(=O)N(C6CCC(=O)NC6=O)C7=O)C5)CC4)c3)c21 (some centres unmarked) [Compound 1134] ; response: value < 1000 nM

Param readout = DC50; param system = endogenous MLKL in U937 (Homo sapiens (Human)); param query = Cc1ncsc1-c1ccc(CNC(=O)[C@@H]2C[C@@H](O)CN2C(=O)[C@@H](NC(=O)CCN2CCC(n3cc(-c4cnc(N)c5c(-c6ccc(NS(=O)(=O)C(F)F)c(O[C@@H](C)c7ccc(F)cc7)c6)nn(C)c45)cn3)C2)C(C)(C)C)cc1 (some centres unmarked) [Compound 1012] ; response: value 1000 to 10000 nM

Param readout = DC50; param system = endogenous MLKL in U937 (Homo sapiens (Human)); param query = C[C@H](Oc1cc(-c2nn(C)c3c(-c4cnn(C5CCN(C(=O)CC6CCCN(c7cccc8c7C(=O)N(C7CCC(=O)NC7=O)C8=O)C6)CC5)c4)cnc(N)c23)ccc1NS(=O)(=O)C(F)F)c1ccc(F)cc1 (some centres unmarked) [Compound 1073] ; response: value < 1000 nM

Param readout = DC50; param system = endogenous MLKL in U937 (Homo sapiens (Human)); param query = Cc1ncsc1-c1ccc(CNC(=O)[C@@H]2C[C@@H](O)CN2C(=O)[C@@H](NC(=O)CCN2CCCC(n3cc(-c4cnc(N)c5c(-c6ccc(NS(=O)(=O)C(F)F)c(O[C@@H](C)c7ccc(F)cc7)c6)nn(C)c45)cn3)C2)C(C)(C)C)cc1 (some centres unmarked) [Compound 1014] ; response: value < 1000 nM

Param readout = DC50; param system = endogenous MLKL in U937 (Homo sapiens (Human)); param query = Cc1ncsc1-c1ccc(CNC(=O)[C@@H]2C[C@@H](O)CN2C(=O)[C@@H](NC(=O)COCCOCCn2cc(-c3cnc(N)c4c(-c5ccc(NS(=O)(=O)C(F)F)c(O[C@@H](C)c6ccc(F)cc6)c5)nn(C)c34)cn2)C(C)(C)C)cc1 [Compound 1006] ; response: value < 1000 nM

Param readout = DC50; param system = endogenous MLKL in U937 (Homo sapiens (Human)); param query = C[C@H](Oc1cc(-c2nn(C)c3c(-c4cnn(C5CCN(Cc6cccc(CNc7cccc8c7C(=O)N(C7CCC(=O)NC7=O)C8=O)c6)CC5)c4)cnc(N)c23)ccc1NS(=O)(=O)C(F)F)c1ccc(F)cc1 (some centres unmarked) [Compound 1095] ; response: value < 1000 nM

Param readout = DC50; param system = endogenous MLKL in U937 (Homo sapiens (Human)); param query = C[C@H](Oc1cc(-c2nn(C)c3c(-c4cnn(C5CCN(C(=O)C6CCC(c7cccc8c7C(=O)N(C7CCC(=O)NC7=O)C8=O)CC6)CC5)c4)cnc(N)c23)ccc1NS(=O)(=O)C(F)F)c1ccc(F)cc1 (some centres unmarked) [Compound 1125] ; response: value < 1000 nM

Param readout = DC50; param system = endogenous MLKL in U937 (Homo sapiens (Human)); param query = C[C@H](Oc1cc(-c2nn(C)c3c(-c4cnn(C5CCN(CC6CCN(c7cccc8c7C(=O)N(C7CCC(=O)NC7=O)C8=O)CC6)CC5)c4)cnc(N)c23)ccc1NS(=O)(=O)C(F)F)c1ccc(F)cc1 (some centres unmarked) [Compound 1079] ; response: value < 1000 nM
